test system: PCSK9 mRNA; format: cell-based, human; settings: Hep3B cells, 100 nM, relative to untreated control cells; 0 = no reduction observed
Strand notation (5' to 3'): a small letter for the sugar, then the base; units joined by * are phosphorothioate-linked, units joined directly phosphodiester-linked; [ ] holds rarer units or linkages, { } end groups; capitals alone tell only the bases. e = 2'-O-(2-methoxyethyl) (MOE); [5mC] = 5-methylcytosine; d = 2'-deoxy (DNA)
property.name: % Inhib (PCSK9 mRNA) (%)
Please respond with the number in % and leave the unit unwritten.

Task item: Recall and state the measured % Inhib (PCSK9 mRNA) for 400308 (e[5mC]*e[5mC]*dG*dG*d[5mC]*d[5mC]*dG*d[5mC]*dT*dG*dA*d[5mC]*e[5mC]*eA; antisense) [compound 400308] .
Reply: 55

Task item: Recall and state the measured % Inhib (PCSK9 mRNA) for 400342 (eG*eT*dG*d[5mC]*dT*dG*dG*dG*dG*dG*dG*d[5mC]*eA*eG; antisense) [compound 400342] .
Reply: 0

Task item: Recall and state the measured % Inhib (PCSK9 mRNA) for 400347 (antisense eG*eG*dA*dG*d[5mC]*dA*dG*d[5mC]*dT*d[5mC]*dA*dG*e[5mC]*eA) [compound 400347] .
Reply: 0
